assay: Vitamin contents in transfusion fluid containers of Examples 4 and 5 after autoclaving and 40° C. four-month storage, bioassay (vitamin B12, biotin) or HPLC (other vitamins)
Format: physicochemical
protocol.conditions: Example 5 transfusion fluid container; 40° C., 4 months
Description: In a holder produced from a three-layered film (the thickness of each layer: 10 μm) in which the outer and the inner layers are made of polyethylene and the intermediate layer is made of ethylene.tetracyclododecene copolymer (trade name: Apel, product of Mitsui Chemicals, Inc.), solution (C) (4 ml) was charged and the inlet was melt-sealed. In a two-compartment container, the prepared holder was attached to one of the compartments. […]
For each record, write down the corresponding Vitamin content, percentage (%) of the initially incorporated amount.

Vitamin content, percentage (%) of the initially incorporated amount for O=C(O)CCCC[C@@H]1SC[C@@H]2NC(=O)N[C@@H]21 [Biotin, biotin] ?
100.3%

Vitamin content, percentage (%) of the initially incorporated amount for CC(C)(CO)[C@@H](O)C(=O)NCCCO [Panthenol, panthenol] ?
97.6%

Vitamin content, percentage (%) of the initially incorporated amount for NC(=O)c1cccnc1 [Nicotinamide, nicotinamide] ?
98.5%

Vitamin content, percentage (%) of the initially incorporated amount for CCCCCCCCCCCCCCCC(=O)OC/C=C(C)/C=C/C=C(C)/C=C/C1=C(C)CCCC1(C)C [Vitamin A, retinol palmitate] ?
83.9%

Vitamin content, percentage (%) of the initially incorporated amount for Nc1nc2ncc(CNc3ccc(C(=O)N[C@@H](CCC(=O)O)C(=O)O)cc3)nc2c(=O)[nH]1 [Folic acid, folic acid] ?
99.1%

====

assay: Vitamin contents in transfusion fluid containers of Examples 4 and 5 after autoclaving and 40° C. four-month storage, bioassay (vitamin B12, biotin) or HPLC (other vitamins)
Format: physicochemical
protocol.conditions: Example 4 transfusion fluid container; 40° C., 4 months
Where a name gives a salt, the structure may show the parent alone.
property.measured: Vitamin content, percentage (%) of the initially incorporated amount
Provide only the numeric value, understood in %.

Vitamin content, percentage (%) of the initially incorporated amount for Cc1ncc(CO)c(CO)c1O.Cl [Pyridoxine hydrochloride (B6), pyridoxine hydrochloride] ?
100.1

Vitamin content, percentage (%) of the initially incorporated amount for Cc1cc2nc3c(=O)[nH]c(=O)nc-3n(C[C@H](O)[C@H](O)[C@H](O)COP(=O)(O)O)c2cc1C [Vitamin B2, sodium riboflavin phosphate] ?
83.2

Vitamin content, percentage (%) of the initially incorporated amount for `CC1=C(C/C=C(\C)CCC[C@H](C)CCC[C@H](C)CCCC(C)C)C(=O)c2ccccc2C1=O` ?
95.3

Vitamin content, percentage (%) of the initially incorporated amount for `Nc1nc2ncc(CNc3ccc(C(=O)N[C@@H](CCC(=O)O)C(=O)O)cc3)nc2c(=O)[nH]1` ?
97.5

Vitamin content, percentage (%) of the initially incorporated amount for Cc1ncc(C[n+]2csc(CCO)c2C)c(N)n1 [Thiamin hydrochloride (B1), thiamin hydrochloride] ?
87.4

Vitamin content, percentage (%) of the initially incorporated amount for `CC(C)(CO)[C@@H](O)C(=O)NCCCO` ?
96.9

Vitamin content, percentage (%) of the initially incorporated amount for CCCCCCCCCCCCCCCC(=O)OC/C=C(C)/C=C/C=C(C)/C=C/C1=C(C)CCCC1(C)C [Vitamin A, retinol palmitate] ?
84.5

Vitamin content, percentage (%) of the initially incorporated amount for `C=C1CC[C@H](O)C/C1=C/C=C1\CCC[C@]2(C)[C@@H]([C@H](C)CCCC(C)C)CC[C@@H]12` ?
88.7

Vitamin content, percentage (%) of the initially incorporated amount for `O=C(O)CCCC[C@@H]1SC[C@@H]2NC(=O)N[C@@H]21` ?
99.8

Vitamin content, percentage (%) of the initially incorporated amount for `O=C1O[C@H]([C@@H](O)CO)C(O)=C1O` ?
98.3

Vitamin content, percentage (%) of the initially incorporated amount for CC(=O)Oc1c(C)c(C)c2c(c1C)CCC(C)(CCC[C@H](C)CCC[C@H](C)CCCC(C)C)O2 (stereo partly drawn) [Vitamin E, tocopherol acetate] ?
95.1

Vitamin content, percentage (%) of the initially incorporated amount for NC(=O)c1cccnc1 [Nicotinamide, nicotinamide] ?
97.8

Hey, just so you know, these numbers are from patent US6572603B1.
